assay details: Cmax in Sprague-Dawley rat at 3 mg/kg, po by LC-MS/MS analysis
Type: ADME, organism-based
Set-up: dose 3 mg/kg, route oral
condition label: in vivo
result type: Cmax (ng/mL)

                           substance_smiles  recorded_result
0  COCCCS(=O)(=O)c1ccc(-c2ccc(CCN3CCC[C@H]3C)cc2)cc1              100

* * *

assay details: Oral bioavailability in Sprague-Dawley rat at 10 mg/kg by LC-MS/MS analysis
Assay type: ADME, organism-based
condition label: in vivo
Form field: bioavailability (one value per entry).
result type: bioavailability (%)

In [3]: df
Out[3]:
                           substance_smiles  recorded_result
0  COCCS(=O)(=O)c1ccc(-c2ccc(CCN3CCC[C@H]3C)cc2)cc1             68.5
1  C[C@@H]1CCCN1CCc1ccc(-c2ccc(S(C)(=O)=O)cc2)cc1              100

* * *

assay details: Oral bioavailability in monkey at 3 mg/kg by LC-MS/MS analysis
Assay type: ADME, organism-based, Macaca mulatta
condition label: rhesus monkey, in vivo
result type: bioavailability

                           substance_smiles  recorded_result
0  COCCCS(=O)(=O)c1ccc(-c2ccc(CCN3CCC[C@H]3C)cc2)cc1            67.5%

* * *

assay details: Clearance in monkey at 3 mg/kg, po by LC-MS/MS analysis
Type: ADME, organism-based, Macaca mulatta
Parameters: dose 3 mg/kg, route oral
condition label: rhesus monkey, in vivo
result type: CL/F (mL/min/kg)

>>> print(df.to_string())
                           substance_smiles  recorded_result
0  COCCCS(=O)(=O)c1ccc(-c2ccc(CCN3CCC[C@H]3C)cc2)cc1             6.17

* * *

Protein target, amino acids: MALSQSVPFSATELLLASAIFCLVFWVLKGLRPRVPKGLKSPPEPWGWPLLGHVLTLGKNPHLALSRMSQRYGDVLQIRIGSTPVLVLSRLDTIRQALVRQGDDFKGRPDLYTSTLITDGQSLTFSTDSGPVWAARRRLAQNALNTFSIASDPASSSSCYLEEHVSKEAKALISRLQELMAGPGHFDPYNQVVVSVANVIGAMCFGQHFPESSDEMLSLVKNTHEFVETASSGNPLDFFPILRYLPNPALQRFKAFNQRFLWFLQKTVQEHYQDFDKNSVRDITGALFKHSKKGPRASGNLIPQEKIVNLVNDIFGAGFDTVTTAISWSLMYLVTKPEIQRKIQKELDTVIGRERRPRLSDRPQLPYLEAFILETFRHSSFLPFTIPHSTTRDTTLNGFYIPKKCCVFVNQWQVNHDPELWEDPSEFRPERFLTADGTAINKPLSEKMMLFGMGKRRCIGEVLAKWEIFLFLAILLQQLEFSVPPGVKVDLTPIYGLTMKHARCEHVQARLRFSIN
pIC50: −log10 of the molar value.
result type: pIC50

                           substance_smiles  result_type  recorded_result
0  COCCCS(=O)(=O)c1ccc(-c2ccc(CCN3CCC[C@H]3C)cc2)cc1        pIC50           < 4.40

* * *

assay details: Tmax in Sprague-Dawley rat at 10 mg/kg, po and iv by LC-MS/MS analysis
Format: ADME, organism-based
Parameters: dose 10 mg/kg, route oral
condition label: in vivo
result type: Tmax (h)

                           substance_smiles  result_type  recorded_result
0  COCCS(=O)(=O)c1ccc(-c2ccc(CCN3CCC[C@H]3C)cc2)cc1         Tmax              0.3
1  C[C@@H]1CCCN1CCc1ccc(-c2ccc(S(C)(=O)=O)cc2)cc1         Tmax                4

* * *

assay details: Half life in mouse at 3 mg/kg, po by LC-MS/MS analysis
Assay type: ADME, organism-based
Parameters: dose 3 mg/kg, route oral
condition label: in vivo
result type: half-life (h)

>>> print(df.to_string())
                           substance_smiles  recorded_result
0  COCCCS(=O)(=O)c1ccc(-c2ccc(CCN3CCC[C@H]3C)cc2)cc1              1.5

* * *

assay details: Cmax in Sprague-Dawley rat plasma at 1 mg/kg, po and iv by LC-MS/MS analysis
Assay type: ADME, organism-based
Parameters: dose 1 mg/kg, route oral
result type: Cmax (ng/mL)

>>> print(df.to_string())
                           substance_smiles  unit_abbrev  recorded_result
0  C[C@@H]1CCCN1CCc1ccc(-c2ccc(S(=O)(=O)CCO)cc2)cc1        ng/mL              122

* * *

assay details: Ratio of drug level in brain to plasma in Sprague-Dawley rat at 1 mg/kg, po and iv after 0.75 to 3 hrs by LC-MS/MS analysis
Type: ADME, organism-based
Parameters: dose 1 mg/kg, route oral
condition label: read-out: BPR
result type: Kp

>>> df
                           substance_smiles  recorded_result
0  C[C@@H]1CCCN1CCc1ccc(-c2ccc(S(=O)(=O)CCO)cc2)cc1             0.72

* * *

Form field: Kp (one value per entry).
assay details: Ratio of drug level in brain to plasma in Sprague-Dawley rat at 3 mg/kg, po and iv after 0.75 to 3 hrs by LC-MS/MS analysis
Format: ADME, organism-based
Set-up: dose 3 mg/kg, route oral
condition label: read-out: BPR
result type: Kp

>>> print(df.to_string())
                           substance_smiles  recorded_result
0  CCS(=O)(=O)c1ccc(-c2ccc(CCN3CCC[C@H]3C)cc2)cc1             1.75
1  COCCCS(=O)(=O)c1ccc(-c2ccc(CCN3CCC[C@H]3C)cc2)cc1              3.3

* * *

system: Histamine H3 receptor (Homo sapiens)
Sequence (Q9Y5N1 whole entry): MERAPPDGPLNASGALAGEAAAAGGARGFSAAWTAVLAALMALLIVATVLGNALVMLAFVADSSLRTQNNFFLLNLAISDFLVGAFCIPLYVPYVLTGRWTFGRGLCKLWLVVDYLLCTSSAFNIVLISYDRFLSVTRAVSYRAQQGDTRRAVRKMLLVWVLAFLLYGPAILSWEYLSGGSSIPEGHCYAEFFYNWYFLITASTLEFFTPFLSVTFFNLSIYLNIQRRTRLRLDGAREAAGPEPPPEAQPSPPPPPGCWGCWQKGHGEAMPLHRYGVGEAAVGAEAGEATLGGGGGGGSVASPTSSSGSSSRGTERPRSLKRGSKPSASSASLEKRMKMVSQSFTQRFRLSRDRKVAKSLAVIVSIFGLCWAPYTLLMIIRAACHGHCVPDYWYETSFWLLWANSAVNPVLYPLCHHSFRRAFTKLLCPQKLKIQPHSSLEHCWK
assay details: Inverse agonist activity at human cloned histamine H3 receptor by [35S]GTPgammaS binding assay
result type: IC50 (nM)

In [3]: df
Out[3]:
                           substance_smiles  recorded_result
0  COCCCS(=O)(=O)c1ccc(-c2ccc(CCN3CCC[C@H]3C)cc2)cc1              0.7

* * *

assay details: Tmax in Sprague-Dawley rat at 1 mg/kg, po and iv by LC-MS/MS analysis
Format: ADME, organism-based
Design: dose 1 mg/kg, route oral
condition label: in vivo
result type: Tmax (min)

>>> df
                           substance_smiles  unit_abbrev  recorded_result
0  C[C@@H]1CCCN1CCc1ccc(-c2ccc(S(=O)(=O)CCO)cc2)cc1          min               30

* * *

assay details: Clearance in Sprague-Dawley rat at 3 mg/kg, po by LC-MS/MS analysis
Assay type: ADME, organism-based
Design: dose 3 mg/kg, route oral
condition label: in vivo
result type: CL/F

In [3]: df
Out[3]:
                           substance_smiles  recorded_result
0  COCCCS(=O)(=O)c1ccc(-c2ccc(CCN3CCC[C@H]3C)cc2)cc1   74.3 mL/min/kg

* * *

assay details: Half life in Sprague-Dawley rat at 10 mg/kg, iv by LC-MS/MS analysis
Assay type: ADME, organism-based
Parameters: dose 10 mg/kg, route intravenous
condition label: in vivo
Items are presented alongside their recorded half-life.
result type: half-life (h)

>>> print(df.to_string())
                           substance_smiles  unit_abbrev  recorded_result
0  C[C@@H]1CCCN1CCc1ccc(-c2ccc(S(C)(=O)=O)cc2)cc1            h              3.6
1  COCCS(=O)(=O)c1ccc(-c2ccc(CCN3CCC[C@H]3C)cc2)cc1            h              0.7

* * *

assay details: Cmax in mouse at 3 mg/kg, po by LC-MS/MS analysis
Type: ADME, organism-based
Design: dose 3 mg/kg, route oral
condition label: in vivo
result type: Cmax (ng/mL)

>>> print(df.to_string())
                           substance_smiles  result_type  unit_abbrev  recorded_result
0  COCCCS(=O)(=O)c1ccc(-c2ccc(CCN3CCC[C@H]3C)cc2)cc1         Cmax        ng/mL               80

* * *

system: hERG (KCNH2) (Homo sapiens, UniProt Q12809)
Sequence (Q12809 whole entry): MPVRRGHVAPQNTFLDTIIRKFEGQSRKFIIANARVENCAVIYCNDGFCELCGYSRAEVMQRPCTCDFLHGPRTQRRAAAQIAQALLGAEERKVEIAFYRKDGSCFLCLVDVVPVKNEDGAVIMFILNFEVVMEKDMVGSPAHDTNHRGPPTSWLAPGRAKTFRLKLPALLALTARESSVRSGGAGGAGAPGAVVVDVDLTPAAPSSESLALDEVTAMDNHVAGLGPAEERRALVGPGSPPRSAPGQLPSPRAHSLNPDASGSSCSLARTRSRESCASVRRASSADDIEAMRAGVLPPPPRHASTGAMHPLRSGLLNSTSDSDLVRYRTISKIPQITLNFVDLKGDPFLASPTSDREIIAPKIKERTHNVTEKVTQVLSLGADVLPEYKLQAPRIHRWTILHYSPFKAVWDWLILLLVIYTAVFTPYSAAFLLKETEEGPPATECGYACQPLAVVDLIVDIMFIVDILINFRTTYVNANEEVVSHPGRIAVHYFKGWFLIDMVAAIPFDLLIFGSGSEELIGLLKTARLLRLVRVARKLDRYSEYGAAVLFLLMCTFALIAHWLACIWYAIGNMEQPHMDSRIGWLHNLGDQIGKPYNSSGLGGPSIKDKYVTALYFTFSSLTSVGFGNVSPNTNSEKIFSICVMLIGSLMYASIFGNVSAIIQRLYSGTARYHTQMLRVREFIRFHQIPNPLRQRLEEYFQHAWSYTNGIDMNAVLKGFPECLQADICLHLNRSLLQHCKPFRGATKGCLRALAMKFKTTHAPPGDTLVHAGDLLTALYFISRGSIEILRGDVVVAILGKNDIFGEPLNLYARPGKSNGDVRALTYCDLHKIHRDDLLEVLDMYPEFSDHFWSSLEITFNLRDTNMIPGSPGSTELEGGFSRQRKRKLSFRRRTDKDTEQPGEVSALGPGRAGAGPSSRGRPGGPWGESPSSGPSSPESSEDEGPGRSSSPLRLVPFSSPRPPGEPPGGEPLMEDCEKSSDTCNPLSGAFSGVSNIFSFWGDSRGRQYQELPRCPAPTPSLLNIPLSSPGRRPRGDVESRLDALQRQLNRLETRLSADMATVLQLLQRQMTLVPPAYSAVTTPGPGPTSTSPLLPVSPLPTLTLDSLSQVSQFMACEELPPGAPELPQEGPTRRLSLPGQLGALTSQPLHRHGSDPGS
assay details: Inhibition of human ERG at 3 uM by patch-clamp assay
We begin with a simple list: items and their reported inhibition at 3 µM.
result type: inhibition at 3 µM (%)

>>> df
                           substance_smiles  recorded_result
0  COCCCS(=O)(=O)c1ccc(-c2ccc(CCN3CCC[C@H]3C)cc2)cc1               14
1  CCOCCS(=O)(=O)c1ccc(-c2ccc(CCN3CCC[C@H]3C)cc2)cc1               45
2  C[C@@H]1CCCN1CCc1ccc(-c2ccc(S(=O)(=O)Cc3ccccc3)cc2)cc1               95
3  COCCS(=O)(=O)c1ccc(-c2ccc(CCN3CCC[C@H]3C)cc2)cc1               29
